# condition.set: in isobutanol, 303.2 K
measured.metric: solubility (mole fraction)
# print the numeric value only

Notebook: "CC(C)(Oc1ccc(CCNC(=O)c2ccc(Cl)cc2)cc1)C(=O)O" , solubility (mole fraction) read as 0.00316

* * *

# condition.set: in isopentanol, 308.21 K
measured.metric: solubility (mole fraction)
// return just the number, without any unit appended

Form: molecule = "CC(C)(Oc1ccc(CCNC(=O)c2ccc(Cl)cc2)cc1)C(=O)O" ; solubility (mole fraction) = 0.00452

* * *

# condition.set: in ethyl acetate, 288.17 K
measured.metric: solubility (mole fraction)
API note: the answer field is a bare number with no unit suffix.

Record "CC(C)(Oc1ccc(CCNC(=O)c2ccc(Cl)cc2)cc1)C(=O)O" . Reported solubility (mole fraction): 0.000665

These measurements were taken from BigSolDB 2.1.
